Tested on: Pseudomonas aeruginosa
PROTOCOL TEXT: Antibacterial activity against Pseudomonas aeruginosa ATCC 27853 after 18 hrs by CLSI based broth microdilution method
Format: functional
DETAILS: ATCC 27853, 18 h
Where a SMILES comes first, the peptide text is derived from it. Bridges are numbered along the chain shown (N, C = ends). [ ]: non-standard residue; d: D form. The star is where a group is joined. X1 = CC[C@H](C)CCCCC(=O)*; Dab = NCC[C@H](N)C(=O)O
So I've got a bunch of molecules here, and I need their MIC values.
The answer consists of two parts: a number and, after it, its unit.

Study these solved cases before continuing.
CC[C@H](C)CCCCC(=O)N[C@@H](CCN)C(=O)N[C@H](C(=O)N[C@@H](CCN)C(=O)N[C@H]1CCNC(=O)[C@H]([C@@H](C)O)NC(=O)[C@H](CCN)NC(=O)[C@H](CCN)NC(=O)[C@H](CC(C)C)NC(=O)[C@@H](Cc2ccccc2)NC(=O)[C@H](CCN)NC1=O)[C@@H](C)O (X1-[Dab]T[Dab][Dab][Dab][dF]L[Dab][Dab]T; lactam 4-C); 2 µM
CC[C@H](C)[C@H](NC(=O)[C@H](CCCNC(=N)N)NC(=O)[C@H](CCCCN)NC(=O)[C@H](CC(C)C)NC(=O)[C@H](CC(C)C)NC(=O)CN)C(=O)N[C@@H](CCCCN)C(=O)N[C@H](C(=O)N[C@@H](CC(C)C)C(=O)N[C@@H](CC(C)C)C(N)=O)[C@@H](C)O [ANOPLIN] (H-GLLKRIKTLL-NH2); 16 µM

## Input Query (molecule): CCCCCCCC(=O)NCC(=O)N[C@@H](CC(C)C)C(=O)N[C@@H](CC(C)C)C(=O)N[C@H](CCCCN)C(=O)N[C@@H](CCCNC(=N)N)C(=O)N[C@H](C(=O)N[C@H](CCCCN)C(=O)N[C@H](C(=O)N[C@@H](CC(C)C)C(=O)N[C@@H](CC(C)C)C(N)=O)[C@@H](C)O)[C@@H](C)CC ; field requested: MIC
## Output 8 µM
